# target.of.assay: Human vitronectin receptor (αvβ3) (Homo sapiens, UniProt P05106+P06756)
# Construct: Human vitronectin receptor (αvβ3) was purified from human placenta
# test.method.notes: Vitronectin adhesion assay: solid phase receptor assay, competition with biotinylated vitronectin
# experimental.conditions: purified human vitronectin receptor; 1 nM biotinylated vitronectin
Where a name gives a salt, the structure may show the parent alone.
measured.quantity: pIC50
# reply with the number alone; pIC50 is -log10 of concentration in mol/L

These solved cases illustrate the format of a correct answer.
molecule	readout.number
COCCOCn1cc(C(=O)NCC(=O)NC(CC(=O)O)c2cc(Br)cc(Br)c2O)cc(NC2=NCC(O)CN2)c1=O (stereo not drawn)	9.37
N=C(N)Nc1nc(C(=O)NCC(=O)NC(CC(=O)O)c2cccnc2)cs1 (stereo not drawn)	7.02
O=C(O)C[C@H](NC(=O)CNC(=O)c1cncc(NC2=NCC(O)CN2)c1)c1cc(Br)cc(I)c1O (stereo partly drawn)	9.15
Cc1sc(C(=O)NCC(=O)N[C@@H](CC(=O)O)c2cc(Cl)cc(Cl)c2O)cc1NC1=NCCN1 [Example 15, trifluoroacetate salt]	7.60
COc1ncc(C(=O)NCC(=O)NC(CC(=O)O)c2cc(Cl)cc(Cl)c2O)cc1NC1=NCCN1 (stereo not drawn) [Example 17, bis(trifluoroacetate) salt]	9.34

# input Entry under review: O=C(O)C[C@H](NC(=O)CNC(=O)c1cncc(NC2=NCC(O)CN2)c1)c1cc(Br)cc(Cl)c1O (stereo partly drawn) . Reported pIC50?
# output 9.68

----------
# target.of.assay: Human vitronectin receptor (αvβ3) (Homo sapiens, UniProt P05106+P06756)
# Construct: Human vitronectin receptor (αvβ3) was purified from human placenta
# test.method.notes: Vitronectin adhesion assay: solid phase receptor assay, competition with biotinylated vitronectin
# experimental.conditions: purified human vitronectin receptor; 1 nM biotinylated vitronectin
pIC50: −log10 of the molar value. Where a name gives a salt, the structure may show the parent alone.
Rule: pIC50 of 8 or more gives met; anything lower gives not met.

compound	group.label
Cn1cc(C(=O)NCC(=O)NC(CC(=O)O)c2cc(Cl)cc(Cl)c2O)cc(NC2=NCCN2)c1=O (stereo not drawn) [Example 18, (trifluoroacetate) salt]	met
O=C(O)C[C@H](NC(=O)CNC(=O)c1cc(NC2=NCC(O)CN2)[nH]c(=O)c1)c1cc(Cl)cc(Cl)c1O (stereo partly drawn) [Example 42]	met
O=C(O)C[C@@H](NC(=O)CNC(=O)c1c[nH]c(=O)c(NC2=NCCN2)c1)c1cc(Cl)cc(Cl)c1O [Example 48]	met

# input Confirm if pIC50 reported for the compound COc1cc(NC2=NCC(O)CN2)nc(C(=O)NCC(=O)N[C@@H](CC(=O)O)c2cc(Cl)cc(Br)c2O)c1 (stereo partly drawn) [Example 30] is 8 or above.
# output not met

----------
# target.of.assay: Human fibrinogen receptor IIb/IIIa (Homo sapiens, UniProt P05106+P08514)
# Construct: Human fibrinogen receptor ([…]) was purified from outdated platelets
# test.method.notes: Purified IIb/IIIa receptor assay: solid phase receptor assay, competition with biotinylated vitronectin
# experimental.conditions: 1 nM biotinylated vitronectin
Where a name gives a salt, the structure may show the parent alone.
measured.quantity: log10 IC50 (log10 of the value in nM)
Scale: decimal log of IC50, IC50 in nM.

These solved cases illustrate the format of a correct answer.
compound	log10 IC50
O=C(O)C[C@H](NC(=O)CNC(=O)c1cncc(NC2=NCC(O)CN2)c1)c1cc(Br)cc(Cl)c1O (stereo partly shown) [Example 7]	2.56
O=C(O)C[C@H](NC(=O)CNC(=O)c1c[nH]c(=O)c(NC2=NCCN2)c1)c1cc(Br)cc(Br)c1O [Example 36]	2.99
O=C(O)CC(NC(=O)CNC(=O)c1ccc(NC2=NCCN2)s1)c1cc(Cl)cc(Cl)c1O (stereo not shown) [Example 16, trifluoroacetate salt]	3.79
O=C(O)CC(NC(=O)CNC(=O)c1cnc(Cl)c(NC2=NCCN2)c1)c1cc(Cl)cc(Cl)c1O (stereo not shown) [Example 19, (trifluoroacetate) salt, monohydrate]	3.40
O=C(O)C[C@H](NC(=O)CNC(=O)c1c[nH]c(=O)c(NC2=NCC(O)CN2)c1)c1cc(Cl)cc(Br)c1O (stereo partly shown) [Example 33]	2.72

# input Entry under review: O=C(O)CC(NC(=O)CNC(=O)c1cncc(NC2=NCC(O)CN2)c1)c1cc(Cl)cc(Br)c1O (stereo not shown) [Example 32] . Reported log10 IC50?
# output 1.69

# input Entry under review: COCCN/C(N)=N/c1cc(C(=O)NCC(=O)N[C@@H](CC(=O)O)c2cc(Cl)cc(Cl)c2O)c[nH]c1=O [Example 46] . Reported log10 IC50?
# output 3.43

# input Entry under review: N=C(N)Nc1cncc(C(=O)NCC(=O)NC(CC(=O)O)c2cc(Cl)cc(Cl)c2O)c1 (stereo not shown) [Example 2] . Reported log10 IC50?
# output 2.43

----------
# target.of.assay: Human vitronectin receptor (αvβ3) (Homo sapiens, UniProt P05106+P06756)
# Construct: Human vitronectin receptor (αvβ3) was purified from human placenta; from tissue; host or cells: human placenta
# test.method.notes: Vitronectin adhesion assay: solid phase receptor assay, competition with biotinylated vitronectin
# Assay type: binding
# experimental.conditions: purified human vitronectin receptor; 1 nM biotinylated vitronectin
Structures can show the parent of a compound that is named as a salt.
measured.quantity: pIC50
# reply with the number alone; pIC50 is -log10 of concentration in mol/L

These solved cases illustrate the format of a correct answer.
compound	target.of.assay	pIC50
O=C(O)CC(NC(=O)CNC(=O)c1cncc(NC2=NCCN2)c1)c1cc(Cl)cc(Br)c1O (stereo not shown)	Human vitronectin receptor (αvβ3) (Homo sapiens, UniProt P05106+P06756)	9.13
COCCN/C(N)=N/c1cc(C(=O)NCC(=O)N[C@@H](CC(=O)O)c2cc(Cl)cc(Cl)c2O)c[nH]c1=O	Human vitronectin receptor (αvβ3) (Homo sapiens, UniProt P05106+P06756)	8.71
O=C(O)CC(NC(=O)CNC(=O)c1c[nH]c(=O)c(NC2=NCC(O)CN2)c1)c1cc(Br)cc(Br)c1O (stereo not shown)	Human vitronectin receptor (αvβ3) (Homo sapiens, UniProt P05106+P06756)	9.34
Cn1nc(C(=O)NCC(=O)NC(CC(=O)O)c2cc(Cl)cc(Cl)c2O)cc1NC1=NCCN1 (stereo not shown) [Example 24, (trifluoroacetate) salt]	Human vitronectin receptor (αvβ3) (Homo sapiens, UniProt P05106+P06756)	4.04
O=C(O)C[C@H](NC(=O)CNC(=O)c1cncc(N=C2NCC(O)CN2)c1)c1cc(Cl)cc(Br)c1O (stereo partly shown)	Human vitronectin receptor (αvβ3) (Homo sapiens, UniProt P05106+P06756)	9.74

Now for the compound whose pIC50 we want.
# input Entry under review: O=C(O)CC(NC(=O)CNC(=O)c1cc(NC2=NCCN2)[nH]n1)c1cc(Cl)cc(Cl)c1O (stereo not shown) [Example 25, (trifluoroacetate) salt] . Reported pIC50?
# output 5.73

----------
# target.of.assay: Human vitronectin receptor (αvβ3) (Homo sapiens, UniProt P05106+P06756)
# Construct: Human vitronectin receptor (αvβ3) was purified from human placenta
# test.method.notes: Vitronectin adhesion assay: solid phase receptor assay, competition with biotinylated vitronectin
# experimental.conditions: purified human vitronectin receptor; 1 nM biotinylated vitronectin
Counter-ions that a name gives are not always drawn.
measured.quantity: pIC50
# reply with the number alone; pIC50 is -log10 of concentration in mol/L

These solved cases illustrate the format of a correct answer.
compound	target.of.assay	readout.number
O=C(O)CC(NC(=O)CNC(=O)c1ccc(NC2=NCCN2)s1)c1cc(Cl)cc(Cl)c1O (centres unmarked) [Example 16, trifluoroacetate salt]	Human vitronectin receptor (αvβ3) (Homo sapiens, UniProt P05106+P06756)	4.66
O=C(O)C[C@H](NC(=O)CNC(=O)c1c[nH]c(=O)c(NC2=NCC(O)CN2)c1)c1cc(Cl)cc(Br)c1O (some centres unmarked)	Human vitronectin receptor (αvβ3) (Homo sapiens, UniProt P05106+P06756)	9.70
O=C(O)C[C@H](NC(=O)CNC(=O)c1cc(NC2=NCC(O)CN2)[nH]c(=O)c1)c1cc(Cl)cc(Br)c1O (some centres unmarked)	Human vitronectin receptor (αvβ3) (Homo sapiens, UniProt P05106+P06756)	8.19
N=C(N)Nc1cncc(C(=O)NCC(=O)NC(CC(=O)O)c2cc(Cl)cc(Br)c2O)c1 (centres unmarked)	Human vitronectin receptor (αvβ3) (Homo sapiens, UniProt P05106+P06756)	8.80

# input Entry under review: Cn1cc(NC2=NCC(O)CN2)cc1C(=O)NCC(=O)N[C@@H](CC(=O)O)c1cc(Cl)cc(Cl)c1O (some centres unmarked) . Reported pIC50?
# output 6.56

----------
# target.of.assay: Human fibrinogen receptor IIb/IIIa (Homo sapiens, UniProt P05106+P08514)
# Construct: Human fibrinogen receptor ([…]) was purified from outdated platelets
# test.method.notes: Purified IIb/IIIa receptor assay: solid phase receptor assay, competition with biotinylated vitronectin
# experimental.conditions: 1 nM biotinylated vitronectin
Where a name gives a salt, the structure may show the parent alone.
This section presents molecules with their documented pIC50 values.
# reply with the number alone; pIC50 is -log10 of concentration in mol/L

These solved cases illustrate the format of a correct answer.
molecule	pIC50
O=C(O)CC(NC(=O)CNC(=O)c1cc(NC2=NCCN2)cs1)c1cc(Cl)cc(Cl)c1O (stereo not drawn) [Example 13, trifluoroacetate salt]	6.11
O=C(O)C[C@H](NC(=O)CNC(=O)c1cncc(NC2=NCC(O)CN2)c1)c1cc(Br)cc(I)c1O (stereo partly drawn)	6.08

Now for the molecule whose pIC50 we want.
# input Entry under review: O=C(O)CC(NC(=O)CNC(=O)c1cncc(NC2=NCCCN2)c1)c1cc(Cl)cc(Cl)c1O (stereo not drawn) . Reported pIC50?
# output 5.90
